Measured values drawn from the supplement of paper PMC10065799 for this set.

# Target under test: Grb2 SH2 (UniProt P62993)
# Sequence (P62993 whole entry, looked up): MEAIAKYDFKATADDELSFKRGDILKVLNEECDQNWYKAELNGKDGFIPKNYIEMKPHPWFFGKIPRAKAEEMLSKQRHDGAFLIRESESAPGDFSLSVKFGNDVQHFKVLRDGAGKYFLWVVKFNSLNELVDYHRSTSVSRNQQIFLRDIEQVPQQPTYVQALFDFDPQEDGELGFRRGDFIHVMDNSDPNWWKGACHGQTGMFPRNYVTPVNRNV
# Experiment: SH2 binding enrichment of the phosphorylated peptide, bacterial display (enrichment ratio); higher = better substrate or ligand; peptides without Tyr show the background
Experimental endpoint: SH2 binding enrichment
Give bare numbers.

Solved cases below.
{"Macromolecule sequence": "YLQEIHNSNNQ [FGG_Y140_Y140H]", "SH2 binding enrichment": 0.802}
{"Macromolecule sequence": "LVKDPYVMFPQ [PLEKHG2_Y489_P484L]", "SH2 binding enrichment": 0.778}
{"Macromolecule sequence": "LDYNEYVRDLN [HPRT1_Y198_F199V]", "SH2 binding enrichment": 0.795}
{"Macromolecule sequence": "AEFGLYGAMVR [VSX2_Y222_YF]", "SH2 binding enrichment": 0.783}

// for each sequence below, give its SH2 binding enrichment
1. PFRKLYESVKK [MKI67_Y241_W238R]
2. EGNERYEGYCV [GRIA3_Y451]
3. SKGFAYVHFDS [PABPC5_Y149_YF]
4. QQLQGYVPSNY [FRK_Y99_I100V]
5. CTTFHYNYMCN [TP53_Y234_I232F]
6. RHPLDYLRQFP [NARS2_Y138_E137D_YF]
7. SSYDIYHLSRE [KIR3DL2_Y253]
8. KVPRHYDDPGK [FOXG1_Y246]

[0.973, 0.881, 1.02, 0.775, 1.17, 1.05, 0.842, 1.26]

Quick one: SH2 binding enrichment of FMLFQYLKQIE [RPAP3_Y569_D564Y_YF] ?
1.53

---

# Target under test: SHP2-C SH2
# Experiment: SH2 binding enrichment of the phosphorylated peptide, bacterial display (enrichment ratio); higher = better substrate or ligand; peptides without Tyr show the background
Label yes (1) when SH2 binding enrichment is at or above 0.7; otherwise label no (0).

Before answering, review these 3 worked examples.
{"Macromolecule sequence": "CTTIHYTFMCN [TP53_Y234_N235T_YF]", "Target under test": "SHP2-C SH2", "Assigned label": "yes (1)"}
{"Macromolecule sequence": "HNLYSYPTKHE [MYO3A_Y1396]", "Target under test": "SHP2-C SH2", "Assigned label": "yes (1)"}
{"Macromolecule sequence": "KKLAEYGPQGK [CLCA1_Y147_R152K]", "Target under test": "SHP2-C SH2", "Assigned label": "no (0)"}

Check the entry AHLTEYLSTHF [UQCRC1_Y219_D215H_YF] : does SH2 binding enrichment equal or exceed 0.7?
yes (1)

Could you verify whether the entry DFSLKYATDIP [APC_Y1183_YF] shows SH2 binding enrichment of no less than 0.7?
yes (1)

Check the entry SDYSRYARTSI [TERT_Y949_S948R] : does SH2 binding enrichment equal or exceed 0.7?
no (0)

Does the reported SH2 binding enrichment for EPYELYCEMGS [CBL_Y371_Q367P] fall at or above the 0.7 mark?
no (0)

Form field: SH2 binding enrichment at least 0.7? Entry: HELYVYKCDEN [DOCK3_Y548]
yes (1)

Hi, just wondering whether ENEGTYVCIAT [ADAMTSL3_Y1365] shows SH2 binding enrichment of 0.7 or higher.
no (0)

Kindly determine if SH2 binding enrichment recorded for QDEHGYISLCF [HSPB1_Y133_R136L] is above or exactly 0.7.
no (0)

Could you please find out whether GELQGYDIMEP [MSH2_Y863_S860L] has SH2 binding enrichment that meets 0.7 or exceeds it?
no (0)

Would you say AEQDWYHGAIP [FER_Y461] shows SH2 binding enrichment at minimum 0.7?
no (0)

Form field: SH2 binding enrichment at least 0.7? Entry: RYVTRSIYNRE [HLA-DQB1_Y62_Y62S]
yes (1)

Hello, I need to know if SDVNKYSTAFG [GJB3_Y16_G12D] has measured SH2 binding enrichment not below 0.7. Thanks!
no (0)

---

# Target under test: c-Src SH2
# Experiment: SH2 binding enrichment of the phosphorylated peptide, bacterial display (enrichment ratio); higher = better substrate or ligand; peptides without Tyr show the background
So basically: SH2 binding enrichment at 0.6 or higher? That is YES. Lower than 0.6? That is NO.

I'd appreciate it if you could say whether AKNKDYMSFIR [GNE_Y197_I200F] has SH2 binding enrichment at least equal to 0.6.
YES

Is it the case that ADQLDYIKALN [HPRT1_Y81_L78Q] has SH2 binding enrichment reaching or exceeding 0.6?
NO

SH2 binding enrichment >= 0.6 for HSDYQYSQRSQ [PKP2_Y168] ?
NO

Is the recorded value of SH2 binding enrichment equal to or greater than 0.6 for this sequence? DRFDNYIEKVR [DES_Y122_A120D]
NO

Could you tell me if the measured SH2 binding enrichment of CLEKEYFDQHF [NPC1_Y394_R389C] reaches 0.6 or more?
YES

---

# Target under test: FGFR3 (UniProt P22607)
# Sequence (P22607 whole entry, looked up): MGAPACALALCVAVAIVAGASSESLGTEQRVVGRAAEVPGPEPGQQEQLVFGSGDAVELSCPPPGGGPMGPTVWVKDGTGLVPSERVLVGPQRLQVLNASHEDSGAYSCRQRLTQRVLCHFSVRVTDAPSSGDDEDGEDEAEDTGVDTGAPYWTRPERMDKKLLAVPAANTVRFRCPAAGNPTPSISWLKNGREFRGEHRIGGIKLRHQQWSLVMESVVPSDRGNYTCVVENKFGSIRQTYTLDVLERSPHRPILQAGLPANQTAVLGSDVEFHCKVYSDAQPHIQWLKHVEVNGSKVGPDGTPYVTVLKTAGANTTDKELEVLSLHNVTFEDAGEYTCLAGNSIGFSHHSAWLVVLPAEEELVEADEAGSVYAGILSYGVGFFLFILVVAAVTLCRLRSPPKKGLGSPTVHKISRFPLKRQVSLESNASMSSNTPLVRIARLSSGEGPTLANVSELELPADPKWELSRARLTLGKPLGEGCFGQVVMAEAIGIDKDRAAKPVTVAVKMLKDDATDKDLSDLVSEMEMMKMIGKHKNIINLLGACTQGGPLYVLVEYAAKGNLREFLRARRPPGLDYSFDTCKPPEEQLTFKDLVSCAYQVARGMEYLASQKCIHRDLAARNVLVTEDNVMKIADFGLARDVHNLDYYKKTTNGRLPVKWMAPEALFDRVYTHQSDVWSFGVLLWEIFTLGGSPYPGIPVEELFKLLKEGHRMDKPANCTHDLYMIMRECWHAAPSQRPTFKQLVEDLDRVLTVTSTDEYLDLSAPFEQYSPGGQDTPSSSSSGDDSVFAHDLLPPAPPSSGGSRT
# Experiment: phosphorylation enrichment, bacterial display (enrichment ratio); higher = better substrate or ligand; peptides without Tyr show the background
Experimental endpoint: phosphorylation enrichment
One number for each entry.

Sample records with phosphorylation enrichment:
{"Macromolecule sequence": "RFLRGYRQFAF [HLA-A_Y137_D140Y_YF]", "Target under test": "FGFR3 (UniProt P22607)", "phosphorylation enrichment": 0.579}
{"Macromolecule sequence": "EVGRVYLFLQP [ITGA2B_Y360]", "Target under test": "FGFR3 (UniProt P22607)", "phosphorylation enrichment": 0.676}
{"Macromolecule sequence": "RELGEYPLAEY [ALDH1A3_Y492_A493P]", "Target under test": "FGFR3 (UniProt P22607)", "phosphorylation enrichment": 0.685}
{"Macromolecule sequence": "PLQKTYNHNVL [SLC4A1_Y553_Y555H]", "Target under test": "FGFR3 (UniProt P22607)", "phosphorylation enrichment": 0.524}
{"Macromolecule sequence": "RHTRSYDYTEG [FGF7_Y56_M59T]", "Target under test": "FGFR3 (UniProt P22607)", "phosphorylation enrichment": 0.546}
{"Macromolecule sequence": "VDTFWYKFLKR [EPM2A_Y86]", "Target under test": "FGFR3 (UniProt P22607)", "phosphorylation enrichment": 0.716}

Dear reader, for each entry below, please note its phosphorylation enrichment.
1. EEQKKYFNAVK [SCN5A_Y1494_M1498V_YF]
2. MALDRYVAICK [OR2B11_Y127]
3. FQQLFYLLQIN [IQGAP2_Y890_T894I_YF]
4. CTTSHYNYMCN [TP53_Y234_I232S]
5. REENGYNTYAS [FGF10_Y161_I156R]

1. 0.567
2. 0.604
3. 1.01
4. 0.649
5. 1.03

Would you mind listing phosphorylation enrichment for each of the following sequences?
1. EVLKNYSQQKD [GOLGA4_Y1551_N1552S]
2. ELSDGYWVVSN [TPP1_Y459_A454E]
3. KMKGEYYRYLA [YWHAG_Y130_D129E]
4. QGRQTYLPQPA [DDR2_Y813]
5. SRDTCYLVLAV [AMH_Y195_R194C]
6. CENCHYPILPL [LCK_Y25_V28L]

[0.56, 1.21, 3.14, 0.485, 1.12, 0.632]

---

What phosphorylation enrichment was measured for each of the following?
# System: AncSZ
# Experiment: phosphorylation enrichment, bacterial display (enrichment ratio); higher = better substrate or ligand; peptides without Tyr show the background

{"Macromolecule sequence": "PSGPMYRGAVP [ASAH1_Y43_T42M]", "Result": 0.617}

Below are 3 sequences. Give each one its phosphorylation enrichment.
1. IPVNGYQPVPA [ROR2_Y824_V819I]
2. FGVTLYPNSRE [MEP1A_Y472]
3. SDPIIYTLENV [ADGRE1_Y534_I539V]

1. 0.582
2. 1.02
3. 1.1

---

Hi there, I'd appreciate the recorded phosphorylation enrichment for every entry that follows.
# Test system: c-Abl (mouse)
# Experiment: phosphorylation enrichment, bacterial display (enrichment ratio); higher = better substrate or ligand; peptides without Tyr show the background
Numbers only.

Look over these answered cases.
{"Macromolecule sequence": "EREYKYDAHNY [OAT_Y50_G51D]", "phosphorylation enrichment": 0.705}
{"Macromolecule sequence": "FRTGHYLCNAC [GATA1_Y223_D218Y_YF]", "phosphorylation enrichment": 0.393}
{"Macromolecule sequence": "VYYDLYGGEKF [PTPN11_Y66_D61V]", "phosphorylation enrichment": 0.918}
{"Macromolecule sequence": "CTTIHYYYMCN [TP53_Y234_N235Y]", "phosphorylation enrichment": 0.644}
{"Macromolecule sequence": "YADGVYLALEE [DUOX2_Y70_Q71L]", "phosphorylation enrichment": 0.899}
{"Macromolecule sequence": "CTLLPYFSAPV [DGKE_Y269_R273P_YF]", "phosphorylation enrichment": 0.896}
{"Macromolecule sequence": "ALAAPYVLYPG [CEFIP_Y1332]", "phosphorylation enrichment": 0.569}
{"Macromolecule sequence": "EADRKYEEVAC [TPM3_Y163_R168C]", "phosphorylation enrichment": 0.862}
{"Macromolecule sequence": "KPEKTYGLRNE [CEP43_Y267_K271N]", "phosphorylation enrichment": 0.551}
{"Macromolecule sequence": "SPGGDYAAMGA [ERBB3_Y1276_G1271S]", "phosphorylation enrichment": 0.622}

Each of the following entries comes with a recorded value; kindly state phosphorylation enrichment for each.
1. FGSGNYNVFGN [HNRNPA2B1_Y300_D302V_YF]
2. DNLSNYVFQGQ [GRIN2A_Y978_N976S]
3. RGKLFYQEVPA [METTL11B_Y76_A72G]
4. DFPGIYSGYDD [POLR1C_Y33_N32I]
5. EILLSDLRTGY [TGM1_Y365_Y365D]

1. 0.328
2. 0.546
3. 0.503
4. 0.796
5. 0.421

I would be grateful if you could provide phosphorylation enrichment for each of the following entries.
1. DASAVYLHDFQ [PLCG2_Y242]
2. QGCSIYKDYYR [PLA2G2D_Y82]

1: 0.573; 2: 0.731
